# Tested on: HOP-92 NSCLC
# ASSAY PROCEDURE: NCI-60 one-dose screen, 48 h (100 = growth as untreated, 0 = no growth, -100 = all killed)
# MEASUREMENT SETUP: 10 µM unless noted
Compounds without any hit were thinned out: in the full panel of roughly 83,000, 20% have a hit.
Binarize growth at 50%; below is Satisfied, at or above is Not satisfied.

>  <COMPOUND>
CCOC(=O)C1=C(CC(O)c2ccc(OC)cc2OC)NC(=O)NC1c1ccccc1 (centres undefined)

>  <SYSTEM>
HOP-92 NSCLC

>  <ASSIGNED CATEGORY>
Not satisfied

$$$$
>  <COMPOUND>
Cc1cn(C)cn1

>  <SYSTEM>
HOP-92 NSCLC

>  <ASSIGNED CATEGORY>
Not satisfied

$$$$
>  <COMPOUND>
COc1ccccc1/C=C/C(=O)Nc1ccc(F)cc1

>  <SYSTEM>
HOP-92 NSCLC

>  <ASSIGNED CATEGORY>
Not satisfied

$$$$
>  <COMPOUND>
COC(=O)[C@]1(C)CCC[C@]2(C)[C@H]3C[C@@H]4[C@H]5[C@@H]6CC/C(=N\OCC/C(N)=N/O)[C@H]5[C@@]3(CC[C@H]21)CC4(C(C)C)O6

>  <SYSTEM>
HOP-92 NSCLC

>  <ASSIGNED CATEGORY>
Not satisfied

$$$$
>  <COMPOUND>
O=C(Oc1ccc2c(c1)sc1nc(-c3ccccc3)[nH]c(=O)c12)C(F)(F)F

>  <SYSTEM>
HOP-92 NSCLC

>  <ASSIGNED CATEGORY>
Not satisfied

$$$$
>  <COMPOUND>
CC(C)n1c2ccc(Br)cc2c2c3c(c4c5ccccc5ccc4c21)C(=O)NC3=O

>  <SYSTEM>
HOP-92 NSCLC

>  <ASSIGNED CATEGORY>
Not satisfied

$$$$
>  <COMPOUND>
COc1ccc(-c2nc(SCC(=O)Nc3nc4ccc(C)cc4s3)[nH]c(=O)c2C#N)cc1OC

>  <SYSTEM>
HOP-92 NSCLC

>  <ASSIGNED CATEGORY>
Not satisfied

$$$$
>  <COMPOUND>
O=C(NCCCCCCNC(=O)OCc1ccc2c(Cl)cc(Cl)c(O)c2n1)OCc1ccc2c(Cl)cc(Cl)c(O)c2n1

>  <SYSTEM>
HOP-92 NSCLC

>  <ASSIGNED CATEGORY>
Satisfied

$$$$
>  <COMPOUND>
COc1ccc(-c2nc3ccc(C)cc3c3c2c(=O)n(C)c(=O)n3C)cc1OC

>  <SYSTEM>
HOP-92 NSCLC

>  <ASSIGNED CATEGORY>
Not satisfied

$$$$
>  <COMPOUND>
CC(=O)Nc1sc2c(c1-c1nc3ccccc3s1)CNC2

>  <SYSTEM>
HOP-92 NSCLC

>  <ASSIGNED CATEGORY>
Satisfied

$$$$
>  <COMPOUND>
Fc1cccc(CNc2c3ccccc3nc3ccccc23)c1

>  <SYSTEM>
HOP-92 NSCLC

>  <ASSIGNED CATEGORY>
Satisfied

$$$$
>  <COMPOUND>
CCOC(=O)c1c(NC(=O)c2ccccc2)sc2c3c(ccc12)OCN(C)C3

>  <SYSTEM>
HOP-92 NSCLC

>  <ASSIGNED CATEGORY>
Satisfied

$$$$
>  <COMPOUND>
Cc1ccc(S(=O)(=O)N2CCCN(c3nc(-c4ccccc4)nc4nc(-c5ccccc5)oc34)CC2)cc1

>  <SYSTEM>
HOP-92 NSCLC

>  <ASSIGNED CATEGORY>
Not satisfied

$$$$
>  <COMPOUND>
COc1cc2ncnc(Nc3ccc(S(=O)(=O)Nc4nccs4)cc3)c2cc1OCCCN1CCCC1

>  <SYSTEM>
HOP-92 NSCLC

>  <ASSIGNED CATEGORY>
Not satisfied

$$$$
>  <COMPOUND>
O=C(NCCN1CCOCC1)OCc1ccc2c(Cl)cc(Cl)c(O)c2n1

>  <SYSTEM>
HOP-92 NSCLC

>  <ASSIGNED CATEGORY>
Not satisfied

$$$$
>  <COMPOUND>
COc1ccc2[nH]cc(-c3nonc3-c3c[nH]c4ccc(Br)cc34)c2c1

>  <SYSTEM>
HOP-92 NSCLC

>  <ASSIGNED CATEGORY>
Not satisfied

$$$$
>  <COMPOUND>
C[C@@H]1CN(c2cnc(C(=O)Nc3cc(F)cc4cccnc34)cn2)C[C@H](C)N1

>  <SYSTEM>
HOP-92 NSCLC

>  <ASSIGNED CATEGORY>
Satisfied

$$$$
>  <COMPOUND>
CC(=O)N1N=C(c2ccc(Nc3nc(Nc4ccc(F)cc4)nc(Nc4ccc(F)cc4)n3)cc2)CC1c1ccc(N(C)C)cc1 (centres undefined)

>  <SYSTEM>
HOP-92 NSCLC

>  <ASSIGNED CATEGORY>
Satisfied

$$$$
>  <COMPOUND>
CC1(C)CC[C@]2(CO)CC[C@]3(C)[C@](O)([C@H](O)C[C@@H]4[C@@]5(C)CCCNC(C)(C)[C@@H]5CC[C@]43C)[C@@H]2C1

>  <SYSTEM>
HOP-92 NSCLC

>  <ASSIGNED CATEGORY>
Not satisfied

$$$$
